Please respond with reported viability, T/C for every item in the list.
- System: SW1271 complex spheroids with HUVEC/MSC, growth, % test/control
- Assay notes: Anticancer human tumor SW1271 cell line growth inhibition [AhR];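 note: spheroids exposed to agents for 7 days before readout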
- Test conditions: second compound 10 µM; first compound 0.000316 µM; stronger effect = lower value
One number for each entry, in %.

Compound | viability, T/C / %
CC[C@@]1(O)C(=O)OCc2c1cc1n(c2=O)Cc2cc3c(CN(C)C)c(O)ccc3nc2-1 + Cc1ccccc1N=Nc1ccc(NC(=O)c2ccnn2C)c(C)c1 | 86.7
CC[C@@]1(O)C(=O)OCc2c1cc1n(c2=O)Cc2cc3c(CN(C)C)c(O)ccc3nc2-1 + Cc1cncc(-c2nc(NCCc3c[nH]c4ccccc34)c3ncn(C(C)C)c3n2)c1 | 66.1
Cn1ncnc1C1c2n[nH]c(=O)c3cc(F)cc(c23)NC1c1ccc(F)cc1 (stereo unspecified) + CC(CO)NC(=O)c1cc(-c2ccc(Cl)cc2)nn(-c2cnn(C)c2)c1=O | 71.8
Cn1ncnc1C1c2n[nH]c(=O)c3cc(F)cc(c23)NC1c1ccc(F)cc1 (stereo unspecified) + Cc1ccccc1N=Nc1ccc(NC(=O)c2ccnn2C)c(C)c1 | 118
CC[C@@]1(O)C(=O)OCc2c1cc1n(c2=O)Cc2cc3c(CN(C)C)c(O)ccc3nc2-1 + CC(CO)NC(=O)c1cc(-c2ccc(Cl)cc2)nn(-c2cnn(C)c2)c1=O | 75.8

Let us examine a further case.
viability, T/C for Cn1ncnc1C1c2n[nH]c(=O)c3cc(F)cc(c23)NC1c1ccc(F)cc1 (stereo unspecified) + Cc1cncc(-c2nc(NCCc3c[nH]c4ccccc34)c3ncn(C(C)C)c3n2)c1 is 44.9

* * *

- Test system: SW1271 complex spheroids with HUVEC/MSC, growth, % test/control
- Assay notes: Anticancer human tumor SW1271 cell line growth inhibition [AhR];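 note: spheroids exposed to agents for 7 days before readout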
- Test conditions: second compound 10 µM; first compound 0.00949 µM; stronger effect = lower value
Give measured viability, T/C for each item. Keep answers brief.
Answers are plain numbers, in %.

As a guide, the following entries are already answered.
Compound | viability, T/C / %
CCc1c2c(nc3ccc(O)cc13)-c1cc3c(c(=O)n1C2)COC(=O)[C@]3(O)CC + CC(CO)NC(=O)c1cc(-c2ccc(Cl)cc2)nn(-c2cnn(C)c2)c1=O | 55.5
CC(C)CC(NC(=O)C(Cc1ccccc1)NC(=O)c1cnccn1)B(O)O (stereo not given) + Cc1ccccc1N=Nc1ccc(NC(=O)c2ccnn2C)c(C)c1 | 30.8
CCN(c1cc(-c2ccc(CN3CCOCC3)cc2)cc(C(=O)NCc2c(C)cc(C)[nH]c2=O)c1C)C1CCOCC1 + Cc1cncc(-c2nc(NCCc3c[nH]c4ccccc34)c3ncn(C(C)C)c3n2)c1 | 48.8

Provide viability, T/C values for the following items, in order.
1. O=C(C=Cn1cnc(-c2cc(C(F)(F)F)cc(C(F)(F)F)c2)n1)NNc1cnccn1 + Cc1ccccc1N=Nc1ccc(NC(=O)c2ccnn2C)c(C)c1
2. CC(C)CC(NC(=O)C(Cc1ccccc1)NC(=O)c1cnccn1)B(O)O (stereo not given) + CC(CO)NC(=O)c1cc(-c2ccc(Cl)cc2)nn(-c2cnn(C)c2)c1=O
3. Nc1ncn(C2CC(O)C(CO)S2)c(=O)n1 (stereo not given) + CC(CO)NC(=O)c1cc(-c2ccc(Cl)cc2)nn(-c2cnn(C)c2)c1=O
4. Nc1ncn(C2CC(O)C(CO)S2)c(=O)n1 (stereo not given) + Cc1ccccc1N=Nc1ccc(NC(=O)c2ccnn2C)c(C)c1
5. CCN(c1cc(-c2ccc(CN3CCOCC3)cc2)cc(C(=O)NCc2c(C)cc(C)[nH]c2=O)c1C)C1CCOCC1 + CC(CO)NC(=O)c1cc(-c2ccc(Cl)cc2)nn(-c2cnn(C)c2)c1=O
6. O=C(C=Cn1cnc(-c2cc(C(F)(F)F)cc(C(F)(F)F)c2)n1)NNc1cnccn1 + Cc1cncc(-c2nc(NCCc3c[nH]c4ccccc34)c3ncn(C(C)C)c3n2)c1
7. O=C(C=Cn1cnc(-c2cc(C(F)(F)F)cc(C(F)(F)F)c2)n1)NNc1cnccn1 + CC(CO)NC(=O)c1cc(-c2ccc(Cl)cc2)nn(-c2cnn(C)c2)c1=O
8. CC(C)CC(NC(=O)C(Cc1ccccc1)NC(=O)c1cnccn1)B(O)O (stereo not given) + Cc1cncc(-c2nc(NCCc3c[nH]c4ccccc34)c3ncn(C(C)C)c3n2)c1

**Result**
94.8
1.45
80.9
86
91.7
44.4
79
0.81

Report viability, T/C for every entry below.
1. CCc1c2c(nc3ccc(O)cc13)-c1cc3c(c(=O)n1C2)COC(=O)[C@]3(O)CC + Cc1cncc(-c2nc(NCCc3c[nH]c4ccccc34)c3ncn(C(C)C)c3n2)c1
2. Nc1ncn(C2CC(O)C(CO)S2)c(=O)n1 (stereo not given) + Cc1cncc(-c2nc(NCCc3c[nH]c4ccccc34)c3ncn(C(C)C)c3n2)c1
3. CCc1c2c(nc3ccc(O)cc13)-c1cc3c(c(=O)n1C2)COC(=O)[C@]3(O)CC + Cc1ccccc1N=Nc1ccc(NC(=O)c2ccnn2C)c(C)c1

**Result**
37.2
45.6
83.9

Record CCN(c1cc(-c2ccc(CN3CCOCC3)cc2)cc(C(=O)NCc2c(C)cc(C)[nH]c2=O)c1C)C1CCOCC1 + Cc1ccccc1N=Nc1ccc(NC(=O)c2ccnn2C)c(C)c1 . Reported viability, T/C: 96.5

* * *

Please go through the items and note down their viability, T/C.
- Test system: SW1271 complex spheroids with HUVEC/MSC, growth, % test/control
- Assay notes: Anticancer human tumor SW1271 cell line growth inhibition [AhR];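 note: spheroids exposed to agents for 7 days before readout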
- Test conditions: second compound 0.316 µM; first compound 0.0316 µM; stronger effect = lower value
- From the text: Multicellular complex tumor spheroid response to aryl hydrocarbon receptor antagonists in combination with a variety of drugs and investigational agents in selected tumor cell lines […] Compounds. […] If the clinical Cmax for an agent had not been determined, the highest concentration tested was 10 microM (Table 1). […]
Answers are plain numbers, in %.

Example results:
Compound | Value units | viability, T/C
Cn1ncnc1C1c2n[nH]c(=O)c3cc(F)cc(c23)NC1c1ccc(F)cc1 (stereo not drawn) + Cc1cncc(-c2nc(NCCc3c[nH]c4ccccc34)c3ncn(C(C)C)c3n2)c1 | % | 77.4
O=C(c1cc(Cc2n[nH]c(=O)c3ccccc23)ccc1F)N1CCN(C(=O)C2CC2)CC1 + Cc1cncc(-c2nc(NCCc3c[nH]c4ccccc34)c3ncn(C(C)C)c3n2)c1 | % | 84.9
O=C(c1cc(Cc2n[nH]c(=O)c3ccccc23)ccc1F)N1CCN(C(=O)C2CC2)CC1 + CC(CO)NC(=O)c1cc(-c2ccc(Cl)cc2)nn(-c2cnn(C)c2)c1=O | % | 79.8
COc1cccc2c1C(=O)c1c(O)c3c(c(O)c1C2=O)CC(O)(C(=O)CO)CC3OC1CC(N)C(O)C(C)O1 (stereo not drawn) + Cc1cncc(-c2nc(NCCc3c[nH]c4ccccc34)c3ncn(C(C)C)c3n2)c1 | % | 81.5
NS(=O)(=O)OCC1CC(n2ccc3c(NC4CCc5ccccc54)ncnc32)CC1O (stereo not drawn) + Cc1ccccc1N=Nc1ccc(NC(=O)c2ccnn2C)c(C)c1 | % | 135

Need viability, T/C for each of these compounds.
1. O=C(c1cc(Cc2n[nH]c(=O)c3ccccc23)ccc1F)N1CCN(C(=O)C2CC2)CC1 + Cc1ccccc1N=Nc1ccc(NC(=O)c2ccnn2C)c(C)c1
2. Nc1ncn(C2CC(O)C(CO)O2)c(=O)n1 (stereo not drawn) + Cc1cncc(-c2nc(NCCc3c[nH]c4ccccc34)c3ncn(C(C)C)c3n2)c1
3. COc1cc(Nc2ncc3c(n2)-c2ccc(Cl)cc2C(c2c(F)cccc2OC)=NC3)ccc1C(=O)O + Cc1ccccc1N=Nc1ccc(NC(=O)c2ccnn2C)c(C)c1
4. CC1COCCN1c1cc(C2(S(C)(=N)=O)CC2)nc(-c2ccnc3[nH]ccc23)n1 (stereo not drawn) + CC(CO)NC(=O)c1cc(-c2ccc(Cl)cc2)nn(-c2cnn(C)c2)c1=O
5. Nc1ccn(C2OC(CO)C(O)C2(F)F)c(=O)n1 (stereo not drawn) + Cc1cncc(-c2nc(NCCc3c[nH]c4ccccc34)c3ncn(C(C)C)c3n2)c1
6. CC1COCCN1c1cc(-c2ccnn2C)c2ccnc(-c3ccn[nH]3)c2n1 (stereo not drawn) + Cc1ccccc1N=Nc1ccc(NC(=O)c2ccnn2C)c(C)c1

**Result**
[106, 111, 72.5, 91.3, 60.5, 92.7]

Provide viability, T/C for all items below, preserving their order.
1. Nc1ccccc1NC(=O)c1ccc(CNC(=O)OCc2cccnc2)cc1 + Cc1ccccc1N=Nc1ccc(NC(=O)c2ccnn2C)c(C)c1
2. COc1ccc([C@@H](O)c2cc(-c3ncnc4cc(N5CCOCC5)ccc34)c(F)cc2Cl)nn1 + CC(CO)NC(=O)c1cc(-c2ccc(Cl)cc2)nn(-c2cnn(C)c2)c1=O
3. CC(C)c1c(-c2ccccc2)nc2c(C#N)c[nH]n2c1=O + CC(CO)NC(=O)c1cc(-c2ccc(Cl)cc2)nn(-c2cnn(C)c2)c1=O

**Result**
1: 90.2; 2: 101; 3: 88.7
